Where do the numbers come from? From patent US20240010684A1.

Target: human MASP1 (Homo sapiens (Human), UniProt P48740)
Sequence (P48740 other isoform, or with tags, fused parts or gaps): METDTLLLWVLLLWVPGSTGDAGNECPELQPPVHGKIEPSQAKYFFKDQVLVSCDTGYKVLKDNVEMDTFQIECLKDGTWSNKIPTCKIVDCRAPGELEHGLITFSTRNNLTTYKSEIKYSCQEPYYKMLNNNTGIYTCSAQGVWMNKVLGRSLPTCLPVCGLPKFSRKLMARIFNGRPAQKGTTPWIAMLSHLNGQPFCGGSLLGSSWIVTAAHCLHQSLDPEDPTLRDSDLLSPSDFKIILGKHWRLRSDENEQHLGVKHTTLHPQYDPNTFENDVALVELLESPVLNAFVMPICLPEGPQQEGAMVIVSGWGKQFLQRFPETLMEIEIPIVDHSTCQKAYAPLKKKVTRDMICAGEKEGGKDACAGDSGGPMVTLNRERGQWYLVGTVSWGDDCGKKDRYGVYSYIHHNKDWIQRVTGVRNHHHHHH
Test: Biochemical human MASP1 assay (FRET substrate)
Conditions: Average IC50; recombinant human MASP1; read-out: human MASP1 IC50
*1 amine or outer side, *2 acyl side, *3 side chain or, on linkers, in order; H or OH if unused. Where a SMILES comes first, the peptide text is derived from it. Bridges are numbered along the chain shown (N, C = ends). [ ]: non-standard residue; d: D form. Adipoyl = O=C(CCCCC(=O)[*:2])[*:1]; Trx = NC[C@H]1CC[C@H](C(=O)O)CC1; tBuAla = CC(C)(C)C[C@H](N)C(=O)O; Pen = CC(C)(S)[C@H](N)C(=O)O; NMeC = CN[C@@H](CS)C(=O)O; Dap = NC[C@H](N)C(=O)O; Ahx = NCCCCCC(=O)O
quantity_name: pIC50
Interpret pIC50 as the negative base-10 log of the concentration measured in mol/L.

Exercise: Entry CC[C@H](C)[C@@H]1NC(=O)[C@H](C)NC(=O)CCCCCNC(=O)[C@H](CC(=O)O)NC(=O)[C@@H]2CCCN2C(=O)[C@H]([C@@H](C)CC)NC(=O)[C@@H]2CSSC[C@H](NC1=O)C(=O)N[C@@H](CO)C(=O)N[C@@H](CCCNC(=N)N)C(=O)N[C@@H](CO)C(=O)N[C@@H](CC(C)C)C(=O)N1CCC[C@H]1C(=O)N1CCC[C@H]1C(=O)N[C@@H]([C@@H](C)CC)C(=O)N2 [Example 45] (cyclo(AICSRSLPPICIPD[Ahx]); disulfide 3-11) has what pIC50?
Key: 7.04

Exercise: Entry CC[C@H](C)[C@@H]1NC(=O)CCCCC(=O)NC[C@@H](C(N)=O)NC(=O)[C@H](CC(=O)O)NC(=O)[C@@H]2CCCN2C(=O)[C@H]([C@@H](C)CC)NC(=O)[C@H]2NC(=O)[C@H]([C@@H](C)CC)NC(=O)[C@@H]3CCCN3C(=O)[C@@H]3CCCN3C(=O)[C@H](CC(C)(C)C)NC(=O)[C@H](CO)NC(=O)[C@H](CCCNC(=N)N)NC(=O)[C@H](CO)NC(=O)[C@H](CSSC2(C)C)NC1=O [Example 60] (ICSRS[tBuAla]PPI[Pen]IPD[Dap]-NH2; disulfide 2-10; linker N-14 via Adipoyl) has what pIC50?
Key: 7.24

Exercise: Entry CC[C@H](C)[C@@H]1NC(=O)CNC(=O)[C@H]2CC[C@@H](CC2)CNC(=O)CNC(=O)C[C@@H](C(N)=O)NC(=O)[C@@H]2CCCN2C(=O)[C@H]([C@@H](C)CC)NC(=O)[C@@H]2CSSC[C@H](NC1=O)C(=O)N[C@@H](CO)C(=O)N[C@@H](CCCNC(=N)N)C(=O)N[C@@H](CO)C(=O)N[C@@H](CC(C)(C)C)C(=O)N1CCC[C@H]1C(=O)N1CCC[C@H]1C(=O)N[C@@H]([C@@H](C)CC)C(=O)N2C [Example 69] (G[Trx]GICSRS[tBuAla]PPI[NMeC]IPD-NH2; disulfide 5-13; lactam N-16) has what pIC50?
Key: 7.70

Exercise: Entry CC[C@H](C)[C@@H]1NC(=O)CNC(=O)CNC(=O)[C@H](C)NC(=O)[C@@H](CC(=O)O)NC(=O)[C@@H]2CCCN2C(=O)[C@H]([C@@H](C)CC)NC(=O)[C@@H]2CSSC[C@H](NC1=O)C(=O)N[C@@H](CO)C(=O)N[C@@H](CCCNC(=N)N)C(=O)N[C@@H](CO)C(=O)N[C@@H](CC(C)C)C(=O)N1CCC[C@H]1C(=O)N1CCC[C@H]1C(=O)N[C@@H]([C@@H](C)CC)C(=O)N2 [Example 17] (cyclo(AGGICSRSLPPICIP[dD]); disulfide 5-13) has what pIC50?
Key: 7.59

====

Target: human MASP2 (Homo sapiens (Human))
Sequence (O00187 other isoform, or with tags, fused parts or gaps): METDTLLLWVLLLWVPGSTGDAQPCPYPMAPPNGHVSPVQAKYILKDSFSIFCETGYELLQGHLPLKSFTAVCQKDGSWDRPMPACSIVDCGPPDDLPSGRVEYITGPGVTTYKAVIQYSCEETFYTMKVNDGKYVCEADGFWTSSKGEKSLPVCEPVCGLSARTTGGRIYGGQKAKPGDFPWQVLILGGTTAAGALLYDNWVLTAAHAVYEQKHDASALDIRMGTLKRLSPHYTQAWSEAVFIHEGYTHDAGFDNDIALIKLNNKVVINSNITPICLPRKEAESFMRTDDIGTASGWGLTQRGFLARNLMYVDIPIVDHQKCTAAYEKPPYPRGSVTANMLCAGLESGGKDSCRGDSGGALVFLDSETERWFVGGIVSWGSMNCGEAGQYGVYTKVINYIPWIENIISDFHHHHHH
Experiment: Biochemical human MASP2 assay (FRET substrate)
Details: Average IC50; recombinant human MASP2; read-out: human MASP2 IC50
Where a SMILES comes first, the peptide text is derived from it. Bridges are numbered along the chain shown (N, C = ends). [ ]: non-standard residue; d: D form. Oic = O=C(O)[C@@H]1C[C@@H]2CCCC[C@@H]2N1; tBuAla = CC(C)(C)C[C@H](N)C(=O)O; Pen = CC(C)(S)[C@H](N)C(=O)O; NMeC = CN[C@@H](CS)C(=O)O; Orn = NCCC[C@H](N)C(=O)O; Ahx = NCCCCCC(=O)O
Labelling: IC50 reported below 200 nM becomes rule met; at or above becomes rule not met.

Sample answers from the record:
INSERT INTO results (compound, category) VALUES
  ('CC[C@H](C)[C@@H]1NC(=O)[C@H](C)NC(=O)CNC(=O)[C@H](C)NC(=O)[C@H](CC(=O)O)NC(=O)[C@@H]2CCCN2C(=O)[C@H]([C@@H](C)CC)NC(=O)[C@H]2NC(=O)[C@H]([C@@H](C)CC)NC(=O)[C@@H]3CCCN3C(=O)[C@@H]3CCCN3C(=O)[C@H](CC(C)(C)C)NC(=O)[C@H](CO)NC(=O)[C@H](CCCNC(=N)N)NC(=O)[C@H](CO)NC(=O)[C@H](CSSC2(C)C)NC1=O [Example 26] (cyclo(AGAICSRS[tBuAla]PPI[Pen]IPD); disulfide 5-13)', 'rule met'),
  ('CC[C@H](C)[C@@H]1NC(=O)CNC(=O)[C@@H](N)CCC(=O)NCCCC[C@@H](C(N)=O)NC(=O)[C@H](CC(=O)O)NC(=O)[C@@H]2CCCN2C(=O)[C@H]([C@@H](C)CC)NC(=O)[C@H]2NC(=O)[C@H]([C@@H](C)CC)NC(=O)[C@@H]3C[C@@H]4CCCC[C@@H]4N3C(=O)[C@@H]3CCCN3C(=O)[C@H](CC(C)C)NC(=O)[C@H](CO)NC(=O)[C@H](CCCNC(=N)N)NC(=O)[C@H](CO)NC(=O)[C@H](CSSC2(C)C)NC1=O [Example 91] (H-EGICSRSLP[Oic]I[Pen]IPDK-NH2; lactam 1-16; disulfide 4-12)', 'rule met'),
  ('CC[C@H](C)[C@@H]1NC(=O)[C@@H]2CCCN2C(=O)[C@@H]2CCCN2C(=O)[C@H](CC(C)(C)C)NC(=O)[C@H](CO)NC(=O)[C@H](CCCNC(=N)N)NC(=O)[C@H](CO)NC(=O)[C@@H]2CSSC(C)(C)[C@H](NC1=O)C(=O)N[C@@H]([C@@H](C)CC)C(=O)N1CCC[C@H]1C(=O)N1CCC[C@H]1C(=O)N[C@@H]([C@@H](C)CC)C(=O)N2 [Example 58] (cyclo(CSRS[tBuAla]PPI[Pen]IPPI); disulfide 1-9)', 'rule not met'),
  ('CC[C@H](C)[C@@H]1NC(=O)[C@H](C)NC(=O)[C@@H](N)CSSC[C@@H](C(N)=O)NC(=O)[C@H](CC(=O)O)NC(=O)[C@@H]2CCCN2C(=O)[C@H]([C@@H](C)CC)NC(=O)[C@H]2NC(=O)[C@H]([C@@H](C)CC)NC(=O)[C@@H]3CCCN3C(=O)[C@@H]3CCCN3C(=O)[C@H](CC(C)(C)C)NC(=O)[C@H](CO)NC(=O)[C@H](CCCNC(=N)N)NC(=O)[C@H](CO)NC(=O)[C@H](CSSC2(C)C)NC1=O [Example 50] (H-CAICSRS[tBuAla]PPI[Pen]IPDC-NH2; disulfide 1-16, 4-12)', 'rule not met'),
  ('CC[C@H](C)[C@@H]1NC(=O)[C@H]2NC(=O)[C@H]([C@@H](C)CC)NC(=O)[C@@H]3CCCN3C(=O)[C@@H]3CCCN3C(=O)[C@H](CC(C)(C)C)NC(=O)[C@H](CO)NC(=O)[C@H](CCCNC(=N)N)NC(=O)[C@H](CO)NC(=O)[C@H](CSSC2(C)C)NC(=O)[C@H]([C@@H](C)CC)NC(=O)[C@@H](N)CCCNC1=O [Example 66] (H-[Orn]ICSRS[tBuAla]PPI[Pen]I; lactam 1-C; disulfide 3-11)', 'rule met');

Exercise: Field: below-cutoff. Rule: recorded IC50 strictly less than 200 nM. Subject: CC[C@H](C)[C@@H]1NC(=O)CNC(=O)CCCCCNC(=O)[C@@H](CC(=O)O)NC(=O)[C@@H]2CCCN2C(=O)[C@H]([C@@H](C)CC)NC(=O)[C@@H]2CSSC[C@H](NC1=O)C(=O)N[C@@H](CO)C(=O)N[C@@H](CCCNC(=N)N)C(=O)N[C@@H](CO)C(=O)N[C@@H](CC(C)C)C(=O)N1CCC[C@H]1C(=O)N1CCC[C@H]1C(=O)N[C@@H]([C@@H](C)CC)C(=O)N2 [Example 16] (cyclo([Ahx]GICSRSLPPICIP[dD]); disulfide 4-12)
Key: rule not met

Exercise: Field: below-cutoff. Rule: recorded IC50 strictly less than 200 nM. Subject: CC[C@H](C)[C@@H]1NC(=O)CNC(=O)CNC(=O)[C@H](CC(=O)O)NC(=O)[C@@H]2CCCN2C(=O)[C@H]([C@@H](C)CC)NC(=O)[C@@H]2CSSC[C@H](NC1=O)C(=O)N[C@@H](CO)C(=O)N[C@@H](CCCNC(=N)N)C(=O)N[C@@H](CO)C(=O)N[C@@H](CC(C)C)C(=O)N1CCC[C@H]1C(=O)N1CCC[C@H]1C(=O)N[C@@H]([C@@H](C)CC)C(=O)N2 [Example 15] (cyclo(CIPDGGICSRSLPPI); disulfide 1-8)
Key: rule not met

Exercise: Field: below-cutoff. Rule: recorded IC50 strictly less than 200 nM. Subject: CC[C@H](C)[C@@H]1NC(=O)[C@@H](C)NC(=O)CNC(=O)CCCCCNC(=O)CC[C@@H](C(N)=O)NC(=O)[C@@H]2CCCN2C(=O)[C@H]([C@@H](C)CC)NC(=O)[C@H]2NC(=O)[C@H]([C@@H](C)CC)NC(=O)[C@@H]3C[C@@H]4CCCC[C@@H]4N3C(=O)[C@@H]3CCCN3C(=O)[C@H](CC(C)C)NC(=O)[C@H](CO)NC(=O)[C@H](CCCNC(=N)N)NC(=O)[C@H](CO)NC(=O)[C@H](CSSC2(C)C)NC1=O [Example 84] ([Ahx]G[dA]ICSRSLP[Oic]I[Pen]IPE-NH2; disulfide 5-13; lactam N-16)
Key: rule met

Exercise: Field: below-cutoff. Rule: recorded IC50 strictly less than 200 nM. Subject: CC[C@H](C)[C@@H]1NC(=O)[C@H](C)NC(=O)CCCCCNC(=O)[C@H](CC(=O)O)NC(=O)[C@@H]2CCCN2C(=O)[C@H]([C@@H](C)CC)NC(=O)[C@@H]2CSSC[C@H](NC1=O)C(=O)N[C@@H](CO)C(=O)N[C@@H](CCCNC(=N)N)C(=O)N[C@@H](CO)C(=O)N[C@@H](CC(C)(C)C)C(=O)N1CCC[C@H]1C(=O)N1CCC[C@H]1C(=O)N[C@@H]([C@@H](C)CC)C(=O)N2C [Example 32] (cyclo(AICSRS[tBuAla]PPI[NMeC]IPD[Ahx]); disulfide 3-11)
Key: rule met
